Target: GST-tagged human ROCK1 catalytic domain 1-477 (Homo sapiens (Human))
Assay: Inhibition of Rho-associated protein kinase isoform 1 (LANCE Ultra ULight-CREBtide FRET kinase assay)
Format: biochemical
Conditions: 30 μM was the highest concentration analyzed
Method: Exemplary compounds were tested for ability to inhibit Rho-associated protein kinase isoform 1 (ROCK1) and Rho-associated protein kinase isoform 2 (ROCK2). Assay procedures and results are described below. Protein constructs were purified from a baculovirus expression system. The peptide substrate was fluorescent LANCE® Ultra ULight-CREBtide: […] […] The flurorescence resonance energy transfer (FRET) signals were read and analyzed on an Envision™ 2103 Multilabel Reader (Perkin Elmer).
property.measured: IC50

compound: CNCc1ccc(C(=O)Nc2cccc(-c3nnc(Nc4ccc5[nH]ncc5c4)s3)c2)cn1 [Example 75K]
measurement: < 1 µM
//
compound: CN1C(=O)Cc2cccc(-c3nnc(Nc4ccc5[nH]ncc5c4Cl)s3)c21 [Example 56C]
measurement: 1 to 15 µM
//
compound: O=C(O)c1ccc(-c2cn3cccc(-c4nnc(Nc5ccc6[nH]ncc6c5Cl)s4)c3n2)cc1 [Example 50E]
measurement: > 30 µM
//
compound: O=C(Nc1cc(-c2nnc(Nc3ccc4[nH]ncc4c3Cl)s2)ccc1C(F)(F)F)c1cnn(CCO)c1 [Example 48M]
measurement: < 1 µM
//
compound: c1cc(-c2cnco2)cc(-c2nnc(Nc3ccc4[nH]ncc4c3)s2)c1
measurement: > 30 µM
//
compound: O=C(O)Cn1cc(C(=O)Nc2cc(F)c(F)c(-c3nnc(Nc4ccc5[nH]ncc5c4)s3)c2)cn1 [Example 35AY]
measurement: > 30 µM
//
compound: Clc1c(Nc2nnc(-c3cccc(-c4nccn4C4COC4)c3)s2)ccc2[nH]ncc12
measurement: > 30 µM
//
compound: CCS(=O)(=O)Nc1cncc(-c2nnc(Nc3ccc4[nH]ncc4c3)s2)c1
measurement: 1 to 15 µM
//
compound: O=C(O)C(F)(F)F.OCCn1ccnc1-c1cccc(-c2nnc(Nc3ccc4[nH]ncc4c3Cl)s2)c1 [Example 45A]
measurement: 1 to 15 µM
//
compound: Brc1cc(-c2nnc(Nc3ccc4[nH]ncc4c3)s2)c2nccn2c1 [Example 52F]
measurement: > 30 µM
//
compound: O=C(Nc1cccc(-c2nnc(Nc3ccc4[nH]ncc4c3Cl)s2)c1)C1CNC1 [Example 35AD]
measurement: 1 to 15 µM
//
compound: Nc1cccc(-c2nnc(Nc3ccc4[nH]ncc4c3)s2)n1.O=C(O)C(F)(F)F [Example 35CR]
measurement: > 30 µM
//
compound: CC(=O)Nc1cccc(-c2nnc(Nc3ccc4[nH]ncc4c3C)s2)c1 [Example 35J]
measurement: 1 to 15 µM
//
compound: Clc1c(Nc2nnc(-c3cccc4[nH]c(-c5cccs5)nc34)s2)ccc2[nH]ncc12 [Example 56B]
measurement: > 30 µM
//
compound: N[C@@H]1CCN(c2nnc(Nc3ccc4[nH]ncc4c3)s2)C1
measurement: 1 to 15 µM
//
compound: O=C(O)C(F)(F)F.OCc1cc(-c2ncco2)cc(-c2nnc(Nc3ccc4[nH]ncc4c3Cl)s2)c1 [Example 41C]
measurement: < 1 µM
//
compound: O=C(O)COc1cccc(-c2nnc(Nc3ccc4[nH]ncc4c3)s2)c1 [Example 35CO]
measurement: 1 to 15 µM

###

biological target: GST-tagged human ROCK1 catalytic domain 1-477 (Homo sapiens (Human), UniProt Q13464); assay: Inhibition of Rho-associated protein kinase isoform 1 (LANCE Ultra ULight-CREBtide FRET kinase assay); assay type: biochemical; conditions: 30 μM was the highest concentration analyzed
Sequence (Q13464 1-477): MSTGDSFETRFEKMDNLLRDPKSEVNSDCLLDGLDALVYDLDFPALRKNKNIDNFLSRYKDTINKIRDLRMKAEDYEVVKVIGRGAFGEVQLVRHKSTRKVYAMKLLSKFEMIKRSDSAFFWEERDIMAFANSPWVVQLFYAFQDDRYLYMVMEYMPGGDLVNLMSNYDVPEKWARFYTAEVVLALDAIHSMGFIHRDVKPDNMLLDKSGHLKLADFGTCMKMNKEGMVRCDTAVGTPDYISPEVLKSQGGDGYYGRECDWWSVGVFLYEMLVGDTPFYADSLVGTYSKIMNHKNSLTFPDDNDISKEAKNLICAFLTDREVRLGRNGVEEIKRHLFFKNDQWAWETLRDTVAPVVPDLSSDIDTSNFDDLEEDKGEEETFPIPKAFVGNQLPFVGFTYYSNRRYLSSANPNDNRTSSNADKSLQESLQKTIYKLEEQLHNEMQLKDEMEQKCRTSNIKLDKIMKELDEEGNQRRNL

compound: NC(=O)c1cc(-c2ncco2)cc(-c2nnc(Nc3ccc4[nH]ncc4c3Cl)s2)c1 [Example 46L]
IC50: > 30 µM
//
compound: Nc1cncc(-c2nnc(Nc3ccc4[nH]ncc4c3)s2)c1.O=C(O)C(F)(F)F [Example 35CS]
IC50: < 1 µM
//
compound: CC(=O)Nc1cccc(-c2nnc(Nc3ccc4[nH]ncc4c3C(C)C)s2)c1 [Example 35I]
IC50: > 30 µM
//
compound: N[C@@H](Cc1ccc(O)cc1)C(=O)Nc1cccc(-c2nnc(Nc3ccc4[nH]ncc4c3Cl)s2)c1.O=C(O)C(F)(F)F [Example 35AK]
IC50: < 1 µM
//
compound: O=C(Nc1cccc(-c2nnc(Nc3ccc4[nH]ncc4c3Cl)s2)c1)c1cnccn1 [Example 35BR]
IC50: > 30 µM
//
compound: CC(=O)Nc1cc(-c2nnc(Nc3ccc4[nH]ncc4c3Cl)s2)ccc1CN(C)C [Example 48L]
IC50: 1 to 15 µM
//
compound: CCS(=O)(=O)Nc1cccc(-c2nnc(Nc3ccc4[nH]ncc4c3)s2)c1 [Example A-8]
IC50: > 30 µM
//
compound: CC(=O)Nc1cccc(-c2nnc(Nc3ccc4[nH]ncc4c3Cl)s2)c1 [Example 35Y]
IC50: < 1 µM
//
compound: Cc1coc(-c2cccc(-c3nnc(Nc4ccc5[nH]ncc5c4Cl)s3)c2)n1 [Example 46C]
IC50: < 1 µM
//
compound: c1cc2[nH]ncc2cc1Nc1nnc(C2CCCNC2)s1 (centres unmarked) [Example A-33]
IC50: 15 to 30 µM
//
compound: O=C(NCC(O)CO)c1cccc(-c2nnc(Nc3ccc4[nH]ncc4c3)s2)c1 (centres unmarked) [Example A-4]
IC50: 1 to 15 µM
//
compound: CC(C)(C)c1cn2cccc(-c3nnc(Nc4ccc5[nH]ncc5c4Cl)s3)c2n1 [Example 75T]
IC50: > 30 µM
//
compound: O=C(Nc1cccc(-c2nnc(Nc3ccc4[nH]ncc4c3)s2)c1)c1cnn(CCO)c1 [Example A-20]
IC50: > 30 µM
//
compound: Cn1cc(C(=O)Nc2cc(-c3nnc(Nc4ccc5[nH]ncc5c4)s3)ccn2)cn1 [Example 75I]
IC50: < 1 µM
//
compound: NCCn1cc(C(=O)Nc2cccc(-c3nnc(Nc4ccc5[nH]ncc5c4)s3)c2)cn1 [Example 35CE]
IC50: < 1 µM
//
compound: CN1C(=O)Cc2c(-c3nnc(Nc4ccc5[nH]ncc5c4Cl)s3)cccc21.O=C(O)C(F)(F)F [Example 43]
IC50: 1 to 15 µM
//
compound: Cn1cc(C(=O)Nc2cc(F)c(F)c(-c3nnc(Nc4ccc5[nH]ncc5c4)s3)c2)cn1 [Example 35BZ]
IC50: > 30 µM
